Assay: pKa of the sulfonimide-based compound (Table 1)
Measured pKa of individual entries

> print(dat)
                            molecule  measure  recorded.measurement
1  O=C1NC(=O)c2ccccc21 [Phthalimide]      pKa                   8.3

Next, consider the following molecule.
Entry O=C1CCC(=O)N1 [Succimide] : reported pKa = ?
9.5
